- Target system: cGMP-inhibited cAMP PDE (Oryctolagus cuniculus, UniProt G1ST54)
- Construct: The PDE enzymes are isolated from rabbit platelets and rat kidney
- Sequence (G1ST54 1-1128): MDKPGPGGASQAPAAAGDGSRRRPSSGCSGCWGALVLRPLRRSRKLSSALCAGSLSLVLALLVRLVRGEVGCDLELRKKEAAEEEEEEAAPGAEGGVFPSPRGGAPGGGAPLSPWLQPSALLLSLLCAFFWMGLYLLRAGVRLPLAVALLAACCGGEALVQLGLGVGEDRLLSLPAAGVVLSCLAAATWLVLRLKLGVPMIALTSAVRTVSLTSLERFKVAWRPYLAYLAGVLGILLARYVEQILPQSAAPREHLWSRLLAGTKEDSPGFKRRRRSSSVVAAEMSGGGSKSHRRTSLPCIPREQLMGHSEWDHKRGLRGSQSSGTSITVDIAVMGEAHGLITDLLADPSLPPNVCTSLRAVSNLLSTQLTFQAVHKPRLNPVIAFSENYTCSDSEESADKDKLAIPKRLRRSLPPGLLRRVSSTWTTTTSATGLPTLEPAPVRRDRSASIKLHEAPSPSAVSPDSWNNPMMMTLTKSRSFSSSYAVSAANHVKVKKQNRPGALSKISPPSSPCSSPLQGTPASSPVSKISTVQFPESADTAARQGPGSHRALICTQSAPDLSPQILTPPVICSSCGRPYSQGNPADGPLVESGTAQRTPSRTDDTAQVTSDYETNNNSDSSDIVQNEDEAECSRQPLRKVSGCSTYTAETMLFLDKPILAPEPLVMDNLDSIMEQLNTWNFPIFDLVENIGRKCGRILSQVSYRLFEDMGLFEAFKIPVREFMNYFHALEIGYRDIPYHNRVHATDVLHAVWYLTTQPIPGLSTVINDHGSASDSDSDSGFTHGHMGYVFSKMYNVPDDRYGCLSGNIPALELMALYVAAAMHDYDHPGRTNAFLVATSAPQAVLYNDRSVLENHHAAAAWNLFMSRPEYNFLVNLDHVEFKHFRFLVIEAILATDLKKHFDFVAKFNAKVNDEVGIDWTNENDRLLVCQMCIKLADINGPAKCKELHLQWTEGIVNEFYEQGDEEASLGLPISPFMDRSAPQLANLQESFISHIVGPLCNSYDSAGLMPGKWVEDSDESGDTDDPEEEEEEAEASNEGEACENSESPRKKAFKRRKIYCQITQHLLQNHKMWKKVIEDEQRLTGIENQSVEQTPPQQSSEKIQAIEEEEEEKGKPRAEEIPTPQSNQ
- Procedure details: Phosphodiesterase activity: inhibition of cGMP-inhibited cAMP PDE from rabbit platelets
- Test context: in vitro
pIC50: −log10 of the molar value.
Readout label: pIC50

{"Compound": "CCCc1nn(C)c2c(=O)[nH]c(-c3cc(C(=O)CN4CCN(C(C)=O)CC4)ccc3OCC)nc12 [Example 3]", "Target system": "cGMP-inhibited cAMP PDE (Oryctolagus cuniculus, UniProt G1ST54)", "Readout label": "pIC50", "Observed result": 4.07}
{"Compound": "CCCc1nn(C)c2c(=O)[nH]c(-c3cc(/C=C/C(=O)N(C)C)ccc3OCC)nc12 [Example 25]", "Target system": "cGMP-inhibited cAMP PDE (Oryctolagus cuniculus, UniProt G1ST54)", "Readout label": "pIC50", "Observed result": 4.08}
{"Compound": "CCCOc1ccc(COCCO)cc1-c1nc2c(CCC)nn(C)c2c(=O)[nH]1 [Example 39]", "Target system": "cGMP-inhibited cAMP PDE (Oryctolagus cuniculus, UniProt G1ST54)", "Readout label": "pIC50", "Observed result": 4.27}
{"Compound": "CCCOc1ccc(C(=O)CN2CCOCC2)cc1-c1nc2c(CCC)nn(C)c2c(=O)[nH]1 [Example 14]", "Target system": "cGMP-inhibited cAMP PDE (Oryctolagus cuniculus, UniProt G1ST54)", "Readout label": "pIC50", "Observed result": 4.24}
{"Compound": "CCCc1nn(C)c2c(=O)[nH]c(-c3cc(C(=O)N4CCN(C)CC4)ccc3OCC)nc12 [Example 30]", "Target system": "cGMP-inhibited cAMP PDE (Oryctolagus cuniculus, UniProt G1ST54)", "Readout label": "pIC50", "Observed result": 4.24}
{"Compound": "CCCc1nn(C)c2c(=O)[nH]c(-c3cc(-c4nccn4C)ccc3OCC)nc12 [Example 32]", "Target system": "cGMP-inhibited cAMP PDE (Oryctolagus cuniculus, UniProt G1ST54)", "Readout label": "pIC50", "Observed result": 4.42}
{"Compound": "CCCOc1ccc(/C=C/C(=O)O)cc1-c1nc2c(CCC)nn(C)c2c(=O)[nH]1 [Example 20]", "Target system": "cGMP-inhibited cAMP PDE (Oryctolagus cuniculus, UniProt G1ST54)", "Readout label": "pIC50", "Observed result": 4.23}
{"Compound": "CCCc1nn(C)c2c(=O)[nH]c(-c3cc(C(=O)O)ccc3OCC)nc12 [Example 29]", "Target system": "cGMP-inhibited cAMP PDE (Oryctolagus cuniculus, UniProt G1ST54)", "Readout label": "pIC50", "Observed result": 4.08}
{"Compound": "CCCc1nn(C)c2c(=O)[nH]c(-c3cc(-n4ccnc4)ccc3OCC)nc12 [Example 31]", "Target system": "cGMP-inhibited cAMP PDE (Oryctolagus cuniculus, UniProt G1ST54)", "Readout label": "pIC50", "Observed result": 4.25}
{"Compound": "CCCOc1ccc(C(O)CN2CCOCC2)cc1-c1nc2c(CCC)nn(C)c2c(=O)[nH]1 (stereo not shown) [Example 16]", "Target system": "cGMP-inhibited cAMP PDE (Oryctolagus cuniculus, UniProt G1ST54)", "Readout label": "pIC50", "Observed result": 4.28}
{"Compound": "CCCOc1ccc(C(=O)CN2CCN(C)CC2)cc1-c1nc2c(CCC)nn(C)c2c(=O)[nH]1 [Example 15]", "Target system": "cGMP-inhibited cAMP PDE (Oryctolagus cuniculus, UniProt G1ST54)", "Readout label": "pIC50", "Observed result": 4.12}
{"Compound": "CCCc1nn(C)c2c(=O)[nH]c(-c3cc(C(=O)CN4CCOCC4)ccc3OCC)nc12 [Example 4]", "Target system": "cGMP-inhibited cAMP PDE (Oryctolagus cuniculus, UniProt G1ST54)", "Readout label": "pIC50", "Observed result": 4.20}
{"Compound": "CCCc1nn(C)c2c(=O)[nH]c(-c3cc(C(O)CN4CCOCC4)ccc3OCC)nc12 (stereo not shown) [Example 11]", "Target system": "cGMP-inhibited cAMP PDE (Oryctolagus cuniculus, UniProt G1ST54)", "Readout label": "pIC50", "Observed result": 4.24}
